Biological target: EGFR (ErbB1) (Homo sapiens (Human))
Sequence (P00533 25-1210): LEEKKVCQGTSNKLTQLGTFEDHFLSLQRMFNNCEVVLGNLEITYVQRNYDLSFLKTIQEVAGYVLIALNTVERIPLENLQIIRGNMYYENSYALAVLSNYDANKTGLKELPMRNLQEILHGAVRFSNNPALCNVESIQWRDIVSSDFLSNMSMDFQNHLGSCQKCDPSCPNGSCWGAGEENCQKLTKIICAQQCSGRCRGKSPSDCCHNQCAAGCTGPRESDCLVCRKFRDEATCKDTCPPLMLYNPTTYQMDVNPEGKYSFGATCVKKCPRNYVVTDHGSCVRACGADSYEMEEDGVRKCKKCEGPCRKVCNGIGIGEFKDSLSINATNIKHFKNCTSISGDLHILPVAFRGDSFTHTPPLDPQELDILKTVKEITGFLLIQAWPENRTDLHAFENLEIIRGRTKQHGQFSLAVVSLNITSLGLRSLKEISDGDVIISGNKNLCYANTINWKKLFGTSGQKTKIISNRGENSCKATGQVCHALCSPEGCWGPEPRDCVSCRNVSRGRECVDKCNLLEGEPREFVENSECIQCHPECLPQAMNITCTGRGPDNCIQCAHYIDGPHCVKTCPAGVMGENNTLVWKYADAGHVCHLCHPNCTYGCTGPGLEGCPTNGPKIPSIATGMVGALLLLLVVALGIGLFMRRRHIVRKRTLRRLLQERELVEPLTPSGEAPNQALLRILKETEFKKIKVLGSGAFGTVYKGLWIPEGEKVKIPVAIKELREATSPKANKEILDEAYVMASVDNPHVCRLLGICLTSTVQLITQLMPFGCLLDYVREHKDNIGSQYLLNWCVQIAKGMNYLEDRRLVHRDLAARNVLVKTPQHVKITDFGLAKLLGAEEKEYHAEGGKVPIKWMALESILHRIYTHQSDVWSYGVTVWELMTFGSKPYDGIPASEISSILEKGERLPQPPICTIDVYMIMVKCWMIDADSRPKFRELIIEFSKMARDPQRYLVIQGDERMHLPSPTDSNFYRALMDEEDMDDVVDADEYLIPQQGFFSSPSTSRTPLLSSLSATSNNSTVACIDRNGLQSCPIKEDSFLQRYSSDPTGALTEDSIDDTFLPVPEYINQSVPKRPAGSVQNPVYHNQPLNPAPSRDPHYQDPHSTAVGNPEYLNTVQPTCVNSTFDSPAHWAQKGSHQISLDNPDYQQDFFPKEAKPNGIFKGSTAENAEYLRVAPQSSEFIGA
Test: Z'-LYTE kinase inhibition assay, EGFR
Format: biochemical
Conditions: read-out: % inhibition against EGFR (Compound at 0.041 μM)
Measured attribute: inhibition at 0.041 µM

// solved cases for inhibition at 0.041 µM follow
[[record]]
smiles_code = "C=CC(=O)Nc1cccc(-c2cccc3cnc(Nc4ccc(N5CCN(CC(C)(C)O)CC5)c(F)c4)nc23)c1"
endpoint_value = "< 50%"

[[record]]
smiles_code = "C=CC(=O)Nc1cccc(-c2cccc3cnc(Nc4ccc(N5CCN(C(=O)NC)CC5)cc4)nc23)c1"
endpoint_value = "< 50%"

[[record]]
smiles_code = "C=CC(=O)Nc1cccc(-c2cccc3cnc(Nc4c(F)cc(N5CCN(C)CC5)cc4F)nc23)c1"
endpoint_value = "< 50%"

[[record]]
smiles_code = "C=CC(=O)Nc1cccc(-c2cccc3cnc(Nc4ccc(N5CCN(CCO)CC5)cc4)nc23)c1"
endpoint_value = "> 50%"

[[record]]
smiles_code = "C=CC(=O)Nc1cccc(-c2cccc3cnc(Nc4ccc(N[C@@H]5CCOC5)cc4)nc23)c1"
endpoint_value = "< 50%"

[[record]]
smiles_code = "C=CC(=O)Nc1cccc(-c2cccc3cnc(Nc4ccc(N5CCN(CCF)CC5)cc4)nc23)c1"
endpoint_value = "< 50%"

[[record]]
smiles_code = "CC(=O)N1CCN(c2ccc(Nc3ncc4cccc(-c5cccc(NC(=O)/C=C/CN(C)C)c5Cl)c4n3)cc2)CC1"
endpoint_value = "< 50%"


Now take the following compound into account.
Task: Report value: inhibition at 0.041 µM, system: EGFR (ErbB1) (Homo sapiens (Human)), compound: `CN(C)C/C=C/C(=O)Nc1cccc(-c2cccc3cnc(Nc4ccc(N5CCN(C)CC5)cc4)nc23)c1F`
Output: > 50%
